Biological target: glucagon receptor (GCGR), primary cAMP assay cell line (human, UniProt P47871 26-477)
Sequence (P47871 26-477): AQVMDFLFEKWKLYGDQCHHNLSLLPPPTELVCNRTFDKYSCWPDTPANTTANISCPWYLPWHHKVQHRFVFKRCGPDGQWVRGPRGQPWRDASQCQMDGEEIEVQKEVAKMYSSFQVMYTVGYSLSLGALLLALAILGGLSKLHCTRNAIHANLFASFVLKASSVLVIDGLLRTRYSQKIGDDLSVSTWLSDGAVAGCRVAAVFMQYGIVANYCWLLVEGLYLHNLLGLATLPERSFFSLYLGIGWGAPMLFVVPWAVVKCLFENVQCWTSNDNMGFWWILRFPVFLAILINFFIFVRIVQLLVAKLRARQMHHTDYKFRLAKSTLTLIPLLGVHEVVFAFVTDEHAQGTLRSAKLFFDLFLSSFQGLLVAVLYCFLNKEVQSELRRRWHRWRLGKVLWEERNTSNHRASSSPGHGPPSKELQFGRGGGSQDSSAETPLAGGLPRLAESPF
Test: cell-based or functional assay
Starred links: 1 amine or outer side, 2 acyl side, 3 side chain; linkers in the order of their positions; H or OH if unused. Non-standard residues stand in square brackets, D forms with d. Groups on a side chain read outwards from the residue. Primed or numbered codes have the meaning given here. No end group written: not given here. *: point of attachment. γGlu = O=C(O)[C@H](CCC(=O)[*:2])N[*:1]; αMeF = C[C@](N)(Cc1ccccc1)C(=O)O; αMeK = C[C@](N)(CCCCN)C(=O)O; Lauroyl = CCCCCCCCCCCC(=O)*; αMeS = C[C@](N)(CO)C(=O)O; PEG2′ = not defined here; Aib = CC(C)(N)C(=O)O
assayMetric: cAMP Primary assay EC50, n2 (nM)

{"binder": "H[Aib]EGS[αMeF]TSDK([PEG2′-PEG2′-γGlu-Lauroyl])SSYLEGK([PEG2′-PEG2′-γGlu-Lauroyl])AA[αMeK]EFIAK([PEG2′-PEG2′-γGlu-Lauroyl])VVEGG-NH2 [SEQ ID NO: 456]", "assayMetric": "cAMP Primary assay EC50, n2", "resultNumber": 20}
{"binder": "H[Aib]EGS[αMeF]TSDV[αMeS]SK([PEG2′-PEG2′-γGlu-Lauroyl])LEGEK([PEG2′-PEG2′-γGlu-Lauroyl])A[αMeK]EFIAK([PEG2′-PEG2′-γGlu-Lauroyl])VVEGG-NH2 [SEQ ID NO: 465]", "assayMetric": "cAMP Primary assay EC50, n2", "resultNumber": 20}
{"binder": "H[Aib]EGS[αMeF]TSDVSK([PEG2′-PEG2′-γGlu-Lauroyl])YLEK([PEG2′-PEG2′-γGlu-Lauroyl])EAA[αMeK]EFIAK([PEG2′-PEG2′-γGlu-Lauroyl])VVEGG-NH2 [SEQ ID NO: 459]", "assayMetric": "cAMP Primary assay EC50, n2", "resultNumber": 19.7}
{"binder": "H[Aib]EGS[αMeF]TSDK([PEG2′-PEG2′-γGlu-Lauroyl])SSYLEGEAA[αMeK]K([PEG2′-PEG2′-γGlu-Lauroyl])FIAFK([PEG2′-PEG2′-γGlu-Lauroyl])VEGG-NH2 [SEQ ID NO: 474]", "assayMetric": "cAMP Primary assay EC50, n2", "resultNumber": 19.9}
{"binder": "H[Aib]EGS[αMeF]TSDV[αMeS]SYK([PEG2′-PEG2′-γGlu-Lauroyl])EGEK([PEG2′-PEG2′-γGlu-Lauroyl])A[αMeK]EFIAFK([PEG2′-PEG2′-γGlu-Lauroyl])VEGG-NH2 [SEQ ID NO: 485]", "assayMetric": "cAMP Primary assay EC50, n2", "resultNumber": 19.6}
{"binder": "H[Aib]EGS[αMeF]TSDV[αMeS]SYK([PEG2′-PEG2′-γGlu-Lauroyl])EGEK([PEG2′-PEG2′-γGlu-Lauroyl])A[αMeK]EFIK([PEG2′-PEG2′-γGlu-Lauroyl])FVVEGG-NH2 [SEQ ID NO: 453]", "assayMetric": "cAMP Primary assay EC50, n2", "resultNumber": 19.5}
{"binder": "H[Aib]EGS[αMeF]TSDV[αMeS]SK([PEG2′-PEG2′-γGlu-Lauroyl])LEK([PEG2′-PEG2′-γGlu-Lauroyl])EAA[αMeK]EFIAK([PEG2′-PEG2′-γGlu-Lauroyl])VVEGG-NH2 [SEQ ID NO: 463]", "assayMetric": "cAMP Primary assay EC50, n2", "resultNumber": 20}
{"binder": "H[Aib]EGS[αMeF]TSDK([PEG2′-PEG2′-γGlu-Lauroyl])SSYLEGEAA[αMeK]K([PEG2′-PEG2′-γGlu-Lauroyl])FIK([PEG2′-PEG2′-γGlu-Lauroyl])FVVEGG-NH2 [SEQ ID NO: 442]", "assayMetric": "cAMP Primary assay EC50, n2", "resultNumber": 19.7}
{"binder": "H[Aib]EGS[αMeF]TSDVSK([PEG2′-PEG2′-γGlu-Lauroyl])YLEK([PEG2′-PEG2′-γGlu-Lauroyl])EAA[αMeK]EFIAFK([PEG2′-PEG2′-γGlu-Lauroyl])VEGG-NH2 [SEQ ID NO: 475]", "assayMetric": "cAMP Primary assay EC50, n2", "resultNumber": 19.5}
{"binder": "H[Aib]EGS[αMeF]TSDK([PEG2′-PEG2′-γGlu-Lauroyl])SSYLEK([PEG2′-PEG2′-γGlu-Lauroyl])EAA[αMeK]EFIAFK([PEG2′-PEG2′-γGlu-Lauroyl])VEGG-NH2 [SEQ ID NO: 471]", "assayMetric": "cAMP Primary assay EC50, n2", "resultNumber": 19.6}
{"binder": "H[Aib]EGS[αMeF]TSDVSK([PEG2′-PEG2′-γGlu-Lauroyl])YLEK([PEG2′-PEG2′-γGlu-Lauroyl])EAA[αMeK]EFIK([PEG2′-PEG2′-γGlu-Lauroyl])FVVEGG-NH2 [SEQ ID NO: 443]", "assayMetric": "cAMP Primary assay EC50, n2", "resultNumber": 19.4}
{"binder": "H[Aib]EGS[αMeF]TSDK([PEG2′-PEG2′-γGlu-Lauroyl])SSYLEGEK([PEG2′-PEG2′-γGlu-Lauroyl])A[αMeK]EFIAFK([PEG2′-PEG2′-γGlu-Lauroyl])VEGG-NH2 [SEQ ID NO: 473]", "assayMetric": "cAMP Primary assay EC50, n2", "resultNumber": 19.6}
{"binder": "H[Aib]EGS[αMeF]TSDV[αMeS]SK([PEG2′-PEG2′-γGlu-Lauroyl])LEGEK([PEG2′-PEG2′-γGlu-Lauroyl])A[αMeK]EFIAFK([PEG2′-PEG2′-γGlu-Lauroyl])VEGG-NH2 [SEQ ID NO: 481]", "assayMetric": "cAMP Primary assay EC50, n2", "resultNumber": 19.8}
{"binder": "H[Aib]EGS[αMeF]TSDV[αMeS]SYK([PEG2′-PEG2′-γGlu-Lauroyl])EK([PEG2′-PEG2′-γGlu-Lauroyl])EAA[αMeK]EFIAK([PEG2′-PEG2′-γGlu-Lauroyl])VVEGG-NH2 [SEQ ID NO: 467]", "assayMetric": "cAMP Primary assay EC50, n2", "resultNumber": 19.8}
